Measurement notes: in vitro
Experimental parameters: human, Jurkat cells (leukemia cell line)
Recorded metric: viability at 44 h, 10 µM (%)
Number in %, nothing else.

Below, each entry is followed by its recorded viability at 44 h, 10 µM result.
CCCCC(CCCC(=O)Nc1ccccc1)CCC(=O)NO (racemic)	62
O=C(CCC(CCCC(=O)Nc1ccccc1)Cc1ccccc1)NO (racemic)	97

# viability at 44 h, 10 µM (compound: O=C(CCCCCCC(=O)Nc1ccccc1)NO [SAHA, suberoylamide hydroxamic acid] ) is 5

# viability at 44 h, 10 µM (compound: CCCCCCC(CCCC(=O)Nc1ccccc1)CCC(=O)NO (racemic) ) is 39

====

Tested system: HDAC1 (Homo sapiens, UniProt Q13547)
Sequence (Q13547 whole entry): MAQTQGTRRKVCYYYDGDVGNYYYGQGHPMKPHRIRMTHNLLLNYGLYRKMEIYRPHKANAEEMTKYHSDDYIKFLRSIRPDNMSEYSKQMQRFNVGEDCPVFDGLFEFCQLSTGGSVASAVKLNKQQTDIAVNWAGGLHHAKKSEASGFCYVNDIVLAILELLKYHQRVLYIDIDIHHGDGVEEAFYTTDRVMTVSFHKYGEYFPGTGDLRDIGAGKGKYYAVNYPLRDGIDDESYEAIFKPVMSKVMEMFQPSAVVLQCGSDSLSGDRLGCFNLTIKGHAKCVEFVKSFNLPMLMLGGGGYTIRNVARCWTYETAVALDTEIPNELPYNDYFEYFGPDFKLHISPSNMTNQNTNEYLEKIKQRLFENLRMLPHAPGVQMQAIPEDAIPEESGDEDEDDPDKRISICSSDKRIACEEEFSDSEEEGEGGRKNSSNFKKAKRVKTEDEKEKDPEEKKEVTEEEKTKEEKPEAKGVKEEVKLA
Measurement notes: ELISA-based HDAC activity assay, HDAC1
Experimental parameters: read-out: Deacetylase activity (%) HDAC1
Reported activity at 40 µM by item:
The reply must contain the numeric value and, after it, the unit.

Below, each entry is followed by its recorded activity at 40 µM result.
O=C(CCC(CCCC(=O)Nc1ccccc1)Cc1ccccc1)NO (racemic)	44%
O=C(CC[C@@H](CCCC(=O)Nc1ccccc1)Cc1ccccc1)NO [(R)-1f]	38%
CCCCCCC(CCCC(=O)Nc1ccccc1)CCC(=O)NO (racemic)	46%

# activity at 40 µM (molecule: O=C(CC[C@H](CCCC(=O)Nc1ccccc1)Cc1ccccc1)NO [(S)-1f] ) is 50%

====

Tested system: HDAC1 (Homo sapiens, UniProt Q13547)
Measurement notes: ELISA-based HDAC activity assay, HDAC1
Experimental parameters: read-out: Deacetylase activity (%) HDAC1
Reported activity at 10 µM by item:
Number in %, nothing else.

Below, each entry is followed by its recorded activity at 10 µM result.
CCCCCCC(CCCC(=O)Nc1ccccc1)CCC(=O)NO (racemic) [Compound 1d]	83
O=C(CC[C@H](CCCC(=O)Nc1ccccc1)Cc1ccccc1)NO [(S)-1f]	84
O=C(CCC(CCCC(=O)Nc1ccccc1)Cc1ccccc1)NO (racemic) [Compound 1f]	75

--- query ---
# activity at 10 µM (compound: O=C(CC[C@@H](CCCC(=O)Nc1ccccc1)Cc1ccccc1)NO [(R)-1f] ) is 72

====

Tested system: HDAC2 (Homo sapiens, UniProt Q92769)
Sequence (Q92769 whole entry): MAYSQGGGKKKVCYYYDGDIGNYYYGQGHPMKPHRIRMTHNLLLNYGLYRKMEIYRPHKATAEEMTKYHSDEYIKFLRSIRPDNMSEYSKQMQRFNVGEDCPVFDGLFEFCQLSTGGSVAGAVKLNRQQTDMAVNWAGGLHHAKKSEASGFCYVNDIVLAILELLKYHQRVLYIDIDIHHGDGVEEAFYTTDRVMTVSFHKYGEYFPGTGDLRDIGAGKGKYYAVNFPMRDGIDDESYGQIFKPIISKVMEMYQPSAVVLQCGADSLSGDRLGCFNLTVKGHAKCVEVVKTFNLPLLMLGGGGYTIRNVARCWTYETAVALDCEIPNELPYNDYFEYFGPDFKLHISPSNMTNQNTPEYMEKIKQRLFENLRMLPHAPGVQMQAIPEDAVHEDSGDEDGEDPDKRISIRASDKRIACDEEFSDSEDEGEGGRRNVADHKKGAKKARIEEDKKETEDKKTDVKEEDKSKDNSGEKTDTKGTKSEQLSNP
Measurement notes: ELISA-based HDAC activity assay, HDAC2
Experimental parameters: read-out: Deacetylase activity (%) HDAC2
Reported activity at 20 µM by item:
Number in %, nothing else.

Below, each entry is followed by its recorded activity at 20 µM result.
CCCCCCC(CCCC(=O)Nc1ccccc1)CCC(=O)NO (racemic) [Compound 1d]	73
O=C(CC[C@@H](CCCC(=O)Nc1ccccc1)Cc1ccccc1)NO [(R)-1f]	71
O=C(CC[C@H](CCCC(=O)Nc1ccccc1)Cc1ccccc1)NO [(S)-1f]	74

# activity at 20 µM (molecule: O=C(CCC(CCCC(=O)Nc1ccccc1)Cc1ccccc1)NO (racemic) [Compound 1f] ) is 60

====

Tested system: HDAC3 (Homo sapiens, UniProt O15379)
Measurement notes: ELISA-based HDAC activity assay, HDAC3
Experimental parameters: read-out: Deacetylase activity (%) HDAC3
Recorded metric: activity at 40 µM
The reply must contain the numeric value and, after it, the unit.

Below, each entry is followed by its recorded activity at 40 µM result.
CCCCCCC(CCCC(=O)Nc1ccccc1)CCC(=O)NO (racemic)	42%
O=C(CCC(CCCC(=O)Nc1ccccc1)Cc1ccccc1)NO (racemic)	55%
O=C(CC[C@@H](CCCC(=O)Nc1ccccc1)Cc1ccccc1)NO [(R)-1f]	39%

--- query ---
The reported activity at 40 µM value, HDAC3 (Homo sapiens, UniProt O15379), for O=C(CC[C@H](CCCC(=O)Nc1ccccc1)Cc1ccccc1)NO [(S)-1f] reads 48%

====

Tested system: HDAC3 (Homo sapiens, UniProt O15379)
Measurement notes: ELISA-based HDAC activity assay, HDAC3
Experimental parameters: read-out: Deacetylase activity (%) HDAC3
Recorded metric: activity at 80 µM (%)
Number in %, nothing else.

Below, each entry is followed by its recorded activity at 80 µM result.
O=C(CC[C@@H](CCCC(=O)Nc1ccccc1)Cc1ccccc1)NO [(R)-1f]	25
CCCCCCC(CCCC(=O)Nc1ccccc1)CCC(=O)NO (racemic) [Compound 1d]	25
O=C(CCC(CCCC(=O)Nc1ccccc1)Cc1ccccc1)NO (racemic) [Compound 1f]	33

# activity at 80 µM (compound: O=C(CC[C@H](CCCC(=O)Nc1ccccc1)Cc1ccccc1)NO [(S)-1f] ) is 33

====

Tested system: HDAC1 (Homo sapiens)
Measurement notes: ELISA-based HDAC activity assay, HDAC1
Experimental parameters: read-out: Deacetylase activity (%) HDAC1
Reported activity at 80 µM by item:
Number in %, nothing else.

Below, each entry is followed by its recorded activity at 80 µM result.
CCCCCCC(CCCC(=O)Nc1ccccc1)CCC(=O)NO (racemic) [Compound 1d]	26
O=C(CCC(CCCC(=O)Nc1ccccc1)Cc1ccccc1)NO (racemic) [Compound 1f]	27
O=C(CC[C@@H](CCCC(=O)Nc1ccccc1)Cc1ccccc1)NO [(R)-1f]	24

# activity at 80 µM (compound: O=C(CC[C@H](CCCC(=O)Nc1ccccc1)Cc1ccccc1)NO [(S)-1f] ) is 32

====

Tested system: HDAC2 (Homo sapiens, UniProt Q92769)
Measurement notes: ELISA-based HDAC activity assay, HDAC2
Recorded metric: pIC50
pIC50 here: minus log base 10 of the concentration, concentration in moles per litre.

Below, each entry is followed by its recorded pIC50 result.
CCCCCCC(CCCC(=O)Nc1ccccc1)CCC(=O)NO (racemic)	4.42
O=C(CCC(CCCC(=O)Nc1ccccc1)Cc1ccccc1)NO (racemic)	4.49

--- query ---
# pIC50 (compound: CCC(CCCC(=O)Nc1ccccc1)CCC(=O)NO (racemic) ) is 5.31

====

Tested system: HDAC2 (Homo sapiens, UniProt Q92769)
Measurement notes: ELISA-based HDAC activity assay, HDAC2
Experimental parameters: read-out: Deacetylase activity (%) HDAC2
Recorded metric: activity at 10 µM (%)
Number in %, nothing else.

Below, each entry is followed by its recorded activity at 10 µM result.
O=C(CC[C@@H](CCCC(=O)Nc1ccccc1)Cc1ccccc1)NO [(R)-1f]	83
CCCCCCC(CCCC(=O)Nc1ccccc1)CCC(=O)NO (racemic)	79
O=C(CC[C@H](CCCC(=O)Nc1ccccc1)Cc1ccccc1)NO [(S)-1f]	87

# activity at 10 µM (compound: O=C(CCC(CCCC(=O)Nc1ccccc1)Cc1ccccc1)NO (racemic) ) is 74

====

Tested system: HDAC3 (Homo sapiens)
Measurement notes: ELISA-based HDAC activity assay, HDAC3
Recorded metric: IC50 (µM)
Number in µM, nothing else.

Below, each entry is followed by its recorded IC50 result.
CCC(CCCC(=O)Nc1ccccc1)CCC(=O)NO (racemic) [Compound 1b]	6
O=C(CCC(CCCC(=O)Nc1ccccc1)Cc1ccccc1)NO (racemic) [Compound 1f]	42

--- query ---
# IC50 (compound: CCCCCCC(CCCC(=O)Nc1ccccc1)CCC(=O)NO (racemic) [Compound 1d] ) is 30

====

Tested system: UniProt Q9UBN7
Sequence (Q9UBN7 whole entry): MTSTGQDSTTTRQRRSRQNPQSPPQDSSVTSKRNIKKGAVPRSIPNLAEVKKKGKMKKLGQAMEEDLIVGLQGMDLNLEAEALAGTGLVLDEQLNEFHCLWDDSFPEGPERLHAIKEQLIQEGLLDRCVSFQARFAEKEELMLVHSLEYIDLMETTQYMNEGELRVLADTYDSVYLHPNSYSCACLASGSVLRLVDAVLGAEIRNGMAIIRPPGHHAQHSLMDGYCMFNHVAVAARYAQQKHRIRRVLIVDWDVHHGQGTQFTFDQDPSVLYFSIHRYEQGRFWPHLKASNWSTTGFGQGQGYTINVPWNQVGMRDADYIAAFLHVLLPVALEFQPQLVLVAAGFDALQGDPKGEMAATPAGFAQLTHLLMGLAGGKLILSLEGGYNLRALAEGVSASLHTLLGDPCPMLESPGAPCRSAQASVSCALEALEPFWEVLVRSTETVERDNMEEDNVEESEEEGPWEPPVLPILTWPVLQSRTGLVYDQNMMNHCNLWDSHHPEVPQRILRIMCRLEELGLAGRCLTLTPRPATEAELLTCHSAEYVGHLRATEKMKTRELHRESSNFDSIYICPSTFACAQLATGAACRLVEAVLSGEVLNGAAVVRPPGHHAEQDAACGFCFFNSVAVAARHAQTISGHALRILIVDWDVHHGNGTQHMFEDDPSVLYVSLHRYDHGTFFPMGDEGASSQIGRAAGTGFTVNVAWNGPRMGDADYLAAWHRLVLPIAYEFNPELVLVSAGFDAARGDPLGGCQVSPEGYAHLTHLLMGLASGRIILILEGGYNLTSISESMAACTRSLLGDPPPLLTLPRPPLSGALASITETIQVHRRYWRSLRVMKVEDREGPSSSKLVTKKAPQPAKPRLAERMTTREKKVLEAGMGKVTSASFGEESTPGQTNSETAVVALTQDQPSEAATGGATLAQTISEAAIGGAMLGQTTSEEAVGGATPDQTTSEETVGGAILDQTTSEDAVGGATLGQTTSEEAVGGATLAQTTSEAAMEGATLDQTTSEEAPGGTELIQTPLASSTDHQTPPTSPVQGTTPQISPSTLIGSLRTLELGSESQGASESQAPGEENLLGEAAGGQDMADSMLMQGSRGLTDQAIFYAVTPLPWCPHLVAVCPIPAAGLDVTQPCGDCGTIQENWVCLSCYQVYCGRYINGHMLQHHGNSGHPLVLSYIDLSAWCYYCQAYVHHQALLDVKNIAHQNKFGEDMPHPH
Measurement notes: ELISA-based HDAC activity assay, HDAC6
Experimental parameters: HDAC6 over HDAC3; calculated from IC50 values
Kind request: treat 300 fold as inclusive, so HDAC6 fold selectivity HDAC3 at 300 fold or higher is 1 (yes), anything lower is 0 (no).

Field: example entries. Status: answers known.
O=C(CC[C@@H](CCCC(=O)Nc1ccccc1)Cc1ccccc1)NO [(R)-1f]	1 (yes)
CCCCCCC(CCCC(=O)Nc1ccccc1)CCC(=O)NO (racemic)	0 (no)
CCC(CCCC(=O)Nc1ccccc1)CCC(=O)NO (racemic)	0 (no)

Now take the following compound into account.
QUERY: In plain terms: is recorded HDAC6 fold selectivity HDAC3 at least 300 fold for O=C(CC[C@H](CCCC(=O)Nc1ccccc1)Cc1ccccc1)NO [(S)-1f] ?
RESULT: 1 (yes)

====

Reported HDAC8 fold selectivity HDAC3 by item:
Tested system: recombinant HDAC8 (Homo sapiens, UniProt Q9BY41)
Construct: purchased BPS Bioscience
Sequence (Q9BY41 whole entry): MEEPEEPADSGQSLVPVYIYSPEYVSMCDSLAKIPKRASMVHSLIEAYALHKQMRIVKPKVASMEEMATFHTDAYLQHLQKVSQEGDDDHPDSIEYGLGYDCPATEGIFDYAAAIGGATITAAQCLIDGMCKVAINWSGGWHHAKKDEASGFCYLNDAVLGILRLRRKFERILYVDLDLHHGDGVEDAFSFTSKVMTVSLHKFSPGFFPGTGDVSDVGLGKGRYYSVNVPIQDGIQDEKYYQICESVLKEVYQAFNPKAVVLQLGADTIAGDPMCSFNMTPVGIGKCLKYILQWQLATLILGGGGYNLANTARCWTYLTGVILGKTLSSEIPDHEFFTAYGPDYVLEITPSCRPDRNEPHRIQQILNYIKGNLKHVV
Measurement notes: Recombinant HDAC8 inhibition (HDAC-Glo)
Assay type: biochemical
Experimental parameters: HDAC8 over HDAC3; calculated from IC50 values
Number in fold, nothing else.

Below, each entry is followed by its recorded HDAC8 fold selectivity HDAC3 result.
O=C(CC[C@@H](CCCC(=O)Nc1ccccc1)Cc1ccccc1)NO [(R)-1f]	240
CCC(CCCC(=O)Nc1ccccc1)CCC(=O)NO (racemic)	46
O=C(CC[C@H](CCCC(=O)Nc1ccccc1)Cc1ccccc1)NO [(S)-1f]	1000
CCCCCCC(CCCC(=O)Nc1ccccc1)CCC(=O)NO (racemic)	380

--- query ---
# HDAC8 fold selectivity HDAC3 (compound: O=C(CCC(CCCC(=O)Nc1ccccc1)Cc1ccccc1)NO (racemic) ) is 740
